- System: Lolium perenne (LOLPE)
- PROTOCOL: Glasshouse assay for herbicidal activity (pre- and post-emergence), percentage phytotoxicity
- Format: in vivo
- CONDITION NOTES: Lolium perenne, post-emergence, 360 h, 250 g/ha; post-emergence; 15 DAA; visual assessment (100%=total damage, 0%=no damage); read-out: Post-emergence herbicidal activity (percentage phytotoxicity) LOLPE POST
REPORTED PROPERTY: pest or weed control at 250 g/ha
The answer should read as a number with its unit following.

stdin: Recorded pest or weed control at 250 g/ha for Cc1cc(-c2ncc(Cl)cc2F)cc(C)c1C1C(=O)CC(CC(=O)NC2CCCC2)C1=O (stereo not shown) with Lolium perenne (LOLPE), please?
stdout: 100%

stdin: // map CCc1cc(OCC(F)(F)F)cc(C)c1C1C(=O)CC(CC(=O)N2CCOCC2)C1=O (stereo not shown) to recorded pest or weed control at 250 g/ha (system: Lolium perenne (LOLPE))
stdout: 100%

stdin: API: value(readout= pest or weed control at 250 g/ha, system= Lolium perenne (LOLPE), query= Cc1cc(C)c(C2C(=O)CC(CC(=O)NC(C)CC3CCCC3)C2=O)c(C)c1 (stereo not shown) )
stdout: 50%

stdin: Form entry - test system: Lolium perenne (LOLPE); read-out: pest or weed control at 250 g/ha; compound: Cc1cc(-c2ncc(Cl)cc2F)cc(C)c1C1C(=O)CC(CC(=O)NCc2cccc(F)c2)C1=O (stereo not shown)
stdout: 100%

====

Please go through the items and note down their pest or weed control at 250 g/ha.
- System: Lolium perenne (LOLPE)
- PROTOCOL: Glasshouse assay for herbicidal activity (pre- and post-emergence), percentage phytotoxicity
- Format: in vivo
- CONDITION NOTES: Lolium perenne, pre-emergence, 480 h, PRE-emergence, rate 250 g/ha, visual score 20 DAA (100%=total damage, 0%=no damage); read-out: Pre-emergence herbicidal activity (percentage phytotoxicity) LOLPE PRE
- Protocol: Test—Glasshouse Assay for Herbicidal Activity Seeds of a variety of monocotyledonous and dicotyledonous test plants are sown in standard soil in pots. The plants are cultivated for one day (for pre-emergence (PRE)) or for about 12 days (for post-emergence (POST)) under controlled conditions in a glasshouse (warm climate species at 24/18° C., cool climate species at 20/16° C., both at day/night; 16 hours light; 65% humidity). […]
Report as a plain number; the unit % is understood.

stdin: Find the recorded pest or weed control at 250 g/ha belonging to C/C=C/c1cc(C)c(C2C(=O)CC(CC(=O)N(C)CC)C2=O)c(C)c1 (stereo not shown) and report it.
stdout: 80

stdin: If you can, please state the reported pest or weed control at 250 g/ha value of CCNC(=O)CC1CC(=O)C(c2c(C)cc(-c3ncc(Br)cn3)cc2C)C1=O (stereo not shown) .
stdout: 100

stdin: If you can, please state the reported pest or weed control at 250 g/ha value of C/C=C/c1cc(C)c(C2C(=O)CC(CC(=O)NC(C)C)C2=O)c(C)c1 (stereo not shown) .
stdout: 90

stdin: I am curious: what pest or weed control at 250 g/ha value has been reported for COCCCNC(=O)CC1CC(=O)C(c2c(C)cc(-n3cc(Cl)cn3)cc2C)C1=O (stereo not shown) ?
stdout: 90

stdin: Look up pest or weed control at 250 g/ha for this molecule: CCc1cc(C)cc(C)c1C1C(=O)CC(CC(=O)N(C)CC)C1=O (stereo not shown)
stdout: 100

stdin: State the recorded pest or weed control at 250 g/ha for this entry: COCC(C)NC(=O)CC1CC(=O)C(c2c(C)cc(-c3ncc(F)cn3)cc2C)C1=O (stereo not shown)
stdout: 100

stdin: # get_value(readout='pest or weed control at 250 g/ha', item= Cc1cc(Br)cc(C)c1C1C(=O)CC(CC(=O)NCC2CC2(F)F)C1=O (stereo not shown) )
stdout: 70

stdin: So what does the record say about pest or weed control at 250 g/ha for COc1ccc(CNC(=O)CC2CC(=O)C(c3c(C)cc(-c4ncc(F)cn4)cc3C)C2=O)cc1 (stereo not shown) ?
stdout: 80

stdin: Quick one: pest or weed control at 250 g/ha for C#CCNC(=O)CC1CC(=O)C(c2c(C)cc(/C=C/C)cc2C)C1=O (stereo not shown) ?
stdout: 100

stdin: Quick one: pest or weed control at 250 g/ha for C=C(C)CNC(=O)CC1CC(=O)C(c2c(C)cc(-c3ncc(F)cc3F)cc2C)C1=O (stereo not shown) ?
stdout: 100

stdin: Can you share its pest or weed control at 250 g/ha? I mean this molecule: CCc1cc(-n2cc(Cl)cn2)cc(C)c1C1C(=O)CC(CC(=O)NCC2CC2)C1=O (stereo not shown)
stdout: 90

stdin: Please report the recorded pest or weed control at 250 g/ha for CCc1cc(-n2cc(Cl)cn2)cc(C)c1C1C(=O)CC(CC(=O)NCc2ccc(OC)cc2)C1=O (stereo not shown) .
stdout: 70

stdin: Item C#CCN(C)C(=O)CC1CC(=O)C(c2c(C)cc(OCC(F)(F)F)cc2C)C1=O (stereo not shown) has what recorded pest or weed control at 250 g/ha?
stdout: 70

stdin: Value lookup for pest or weed control at 250 g/ha; key = CC(C)=CNC(=O)CC1CC(=O)C(c2c(C)cc(-c3ccc(C#N)cn3)cc2C)C1=O (stereo not shown)
stdout: 0

stdin: # pest or weed control at 250 g/ha lookup, item C/C=C/c1cc(C)c(C2C(=O)CC(CC(=O)NCc3ccc(C#N)cc3)C2=O)c(C)c1 (stereo not shown)
stdout: 0

stdin: Quick one: pest or weed control at 250 g/ha of C/C=C/CNC(=O)CC1CC(=O)C(c2c(C)cc(-c3ncc(F)cc3F)cc2C)C1=O (stereo not shown) ?
stdout: 100

====

Task for the reader: assign each of the following compounds its reported pest or weed control at 250 g/ha.
- Tested on: Alopecurus myosuroides (ALOMY)
- PROTOCOL: Glasshouse assay for herbicidal activity (pre- and post-emergence), percentage phytotoxicity
- Type: in vivo
- CONDITION NOTES: Alopecurus myosuroides, pre-emergence, 480 h, Rate 250 g/ha; pre-emergence; assessed visually 20 DAA; 100%=total damage, 0%=no damage; read-out: Pre-emergence herbicidal activity (percentage phytotoxicity) ALOMY PRE
Your answer is read as %, so omit the unit and give the number.

stdin: So what's the measured pest or weed control at 250 g/ha for this one? C#CCNC(=O)CC1CC(=O)C(c2c(C)cc(C#CC)cc2CC)C1=O (centres unmarked) [Compound A68]
stdout: 70

stdin: Request the reported pest or weed control at 250 g/ha associated with CC#Cc1cc(C)c(C2C(=O)CC(CC(=O)NC(C)(C)CC)C2=O)c(C)c1 (centres unmarked) [Compound A60]
stdout: 100

stdin: Any idea what pest or weed control at 250 g/ha was measured for CC#Cc1cc(C)c(C2C(=O)CC(CC(=O)NCc3ccsc3)C2=O)c(C)c1 (centres unmarked) [Compound A55] ?
stdout: 90

stdin: I would be grateful if you could share the reported pest or weed control at 250 g/ha for Cc1cc(-c2cncnc2)cc(C)c1C1C(=O)CC(CC(=O)NCc2cccc(Cl)c2)C1=O (centres unmarked) [Compound A142] .
stdout: 0

stdin: Return reported pest or weed control at 250 g/ha; argument: C=CCCNC(=O)CC1CC(=O)C(c2c(C)cc(-n3cc(Cl)cn3)cc2C)C1=O (centres unmarked) [Compound A76]
stdout: 90

stdin: May I ask what pest or weed control at 250 g/ha has been recorded for Cc1cc(-c2ncc(Cl)cc2F)cc(C)c1C1C(=O)CC(CC(=O)NCc2cccc(C(F)(F)F)c2)C1=O (centres unmarked) [Compound A120] ?
stdout: 80

stdin: # input compound: CC#Cc1cc(C)c(C2C(=O)CC(CC(=O)NC3CCCC3)C2=O)c(C)c1 (centres unmarked) [Compound A62] ; wanted: its pest or weed control at 250 g/ha
stdout: 100

stdin: I am curious: what pest or weed control at 250 g/ha value has been reported for C=CCOCC(C)(C)NC(=O)CC1CC(=O)C(c2c(C)cc(C#CC)cc2C)C1=O (centres unmarked) [Compound A64] ?
stdout: 70

====

- System: Lolium perenne (LOLPE)
- PROTOCOL: Glasshouse assay for herbicidal activity (pre- and post-emergence), percentage phytotoxicity
- Assay type: in vivo
- CONDITION NOTES: Lolium perenne, post-emergence, 360 h, POST-emergence, rate 250 g/ha, visual score 15 DAA (100%=total damage, 0%=no damage); read-out: Post-emergence herbicidal activity (percentage phytotoxicity) LOLPE POST
REPORTED PROPERTY: pest or weed control at 250 g/ha

stdin: Quick check: pest or weed control at 250 g/ha of CCc1cc(OCC(F)(F)F)cc(C)c1C1C(=O)CC(CC(=O)N(C)CC)C1=O (centres unmarked) [Compound B220] ?
stdout: 100%

stdin: Which pest or weed control at 250 g/ha is listed for C/C=C/c1cc(C)c(C2C(=O)CC(CC(=O)NCc3cccc(Cl)c3)C2=O)c(C)c1 (centres unmarked) [Compound B241] ?
stdout: 90%

stdin: Requested read-out: pest or weed control at 250 g/ha. Entry: Cc1cc(-c2ncc(F)cn2)cc(C)c1C1C(=O)CC(CC(=O)N(C)C(C)(C)C)C1=O (centres unmarked) [Compound B331]
stdout: 100%

stdin: Look at this compound and give its reported pest or weed control at 250 g/ha. Cc1cc(-c2ccc(C#N)cn2)cc(C)c1C1C(=O)CC(CC(=O)N2CCOCC2)C1=O (centres unmarked) [Compound B321]
stdout: 90%

stdin: Endpoint output: pest or weed control at 250 g/ha of COCC(C)(C)NC(=O)CC1CC(=O)C(c2c(C)cc(-c3ncc(F)cn3)cc2C)C1=O (centres unmarked) [Compound B327] . Value?
stdout: 90%

stdin: Bench note: what pest or weed control at 250 g/ha did Cc1cc(-c2ncc(F)cn2)cc(C)c1C1C(=O)CC(CC(=O)NC/C=C\Br)C1=O (centres unmarked) [Compound B326] show?
stdout: 100%

stdin: # lookup: pest or weed control at 250 g/ha of Cc1cc(-n2cc(Cl)cn2)cc(C)c1C1C(=O)CC(CC(=O)NC/C=C/Cl)C1=O (centres unmarked) [Compound B308]
stdout: 60%

stdin: Recorded pest or weed control at 250 g/ha of C/C=C/c1cc(C)c(C2C(=O)CC(CC(=O)N(C)C(C)(C)C)C2=O)c(CC)c1 (centres unmarked) [Compound B274] , please.
stdout: 90%
